System: K562
experiment description: NCI tumour cell line growth inhibition, 48 h
Calls of active or inactive are those of the source. No stated cut-off is given here; in the data, active = GI50 up to about 1.1 µM and inactive = higher.
Reported GI50 values follow for various compounds

I'd like to know its GI50. The compound in question is "COc1ccc2c(C)cc(=O)oc2c1OC"
> 100 µM (inactive)

I'd like to know its GI50. The compound in question is "CC(C)(C)c1cc(C(=O)/C=C/c2ccc3c(c2)OCO3)cc(C(C)(C)C)c1O"
5.24 µM (inactive)

----------
Tested on: HOP-92
experiment description: NCI tumour cell line growth inhibition, 48 h
Calls of active or inactive are those of the source. Cut-off read from the data, not from the text of the source: active = GI50 up to about 1.1 µM and inactive = higher.
Bench note: report the call from label 1 = active, label 0 = inactive

- compound: "CS(=O)(=O)OCCN1CCN(C(=O)c2cccc3c(Nc4ccc(S(N)(=O)=O)cc4)c4ccccc4nc23)CC1"
  tested system: "HOP-92"
  category label: "label 0"
- compound: "COC(=O)C(C(=O)C(=O)Nc1ccc([N+](=O)[O-])cc1)c1nc2cc(C)c(C)cc2nc1O (centres undefined)"
  tested system: "HOP-92"
  category label: "label 0"
- compound: "CC(=O)OCCc1cccnc1/C=N/O"
  tested system: "HOP-92"
  category label: "label 0"
- compound: "Cc1[nH]c2ccccc2c1-c1cc(-c2cc(-c3c(C)[nH]c4ccccc34)nc(N)n2)nc(N)n1"
  tested system: "HOP-92"
  category label: "label 0"
- compound: "O=S(=O)(c1cc(Cl)ccc1Cl)N1CCN(c2ccc(Cl)c(Cl)c2)CC1"
  tested system: "HOP-92"
  category label: "label 0"
- compound: "O=C(CN1CCN(C(=O)OCc2ccccc2)CCN(CC(=O)N2CCCCC2)CCN(C(=O)OCc2ccccc2)CC1)N1CCCCC1"
  tested system: "HOP-92"
  category label: "label 0"

Short answer needed: outcome of this test for CCN(CC)CCC1CCCCN1CC(=O)N1c2ccccc2NC(=O)CC1C (centres undefined) ?
label 0

Short answer needed: outcome of this test for "C=C1C(=O)O[C@@H]2C(=O)[C@@H](C)[C@@H]3C=CC(=O)[C@@]3(C)[C@@H](OC(=O)/C(C)=C\C)[C@H]12" ?
label 1

Short answer needed: outcome of this test for "CS(=O)(=O)OCCCOS(C)(=O)=O" ?
label 0

----------
Tested on: SN12C
experiment description: NCI tumour cell line growth inhibition, 48 h
The source made the active and inactive calls. Cut-off read from the data, not from the text of the source: active = GI50 up to about 1.1 µM and inactive = higher.
Bench note: report the call from yes (1) for active, no (0) for inactive

For orientation, consider the following solved cases.
- molecule: "O=Cc1ccc2c(c1I)OCO2"
  category label: "no (0)"
- molecule: "CCOC(=O)CCc1c(C)c2c(O)cc(O)cc2oc1=O"
  category label: "no (0)"
- molecule: "Cc1c(NC(=O)C(C)(C)Br)c(=O)oc2c(C)c3occc(=O)c3cc12"
  category label: "no (0)"
- molecule: "O=C1OCOC2(CCCC2)C1c1ccccc1 (stereo unspecified)"
  category label: "no (0)"

Short answer needed: outcome of this test for Fc1cccc(C2SCc3nc4ccccc4n32)c1 (stereo unspecified) ?
no (0)

Short answer needed: outcome of this test for "CNC(=O)CCCNC(=O)CCCC(=O)N(C)C" ?
no (0)

Short answer needed: outcome of this test for CCc1cccc(C(C)C)c1NC(=O)/C(=N\NC(N)=O)C(C(=O)OC)c1cnc2ccccc2n1 (stereo unspecified) ?
no (0)

Short answer needed: outcome of this test for "O=C(/C=C/c1ccc(Oc2cc(C(=O)/C=C/c3ccc(O)cc3)c(O)cc2O)cc1)c1ccc(O)cc1O" ?
no (0)

Short answer needed: outcome of this test for "O=C(CSc1nc2ccccc2c(=O)n1-c1ccccc1)N/N=C1\C(=O)Nc2ccc(Br)cc21" ?
no (0)

Short answer needed: outcome of this test for "O=S1(=O)OCCOS(=O)(=O)C1Cc1cccc2ccccc12" ?
no (0)

Short answer needed: outcome of this test for "OC[C@H]1O[C@@H](Oc2cc(O)cc(/C=C/c3ccc(O)cc3)c2)[C@H](O)[C@@H](O)[C@@H]1O" ?
no (0)

Short answer needed: outcome of this test for "Clc1cccc(/C=N/C23CC4CC(CC(C4)C2)C3)c1Cl" ?
no (0)

Short answer needed: outcome of this test for "CCCc1cc2c(cc1O)CC[C@@H]1[C@@H]2CC[C@]2(C)[C@@H](O)CC[C@@H]12" ?
no (0)

Short answer needed: outcome of this test for "Cc1c(C#N)c(N)[nH]c(=S)c1C#N" ?
no (0)

Short answer needed: outcome of this test for "CS(=O)(=O)OCCN1CCN(C(=O)c2cccc3c(Nc4ccc(S(N)(=O)=O)cc4)c4ccccc4nc23)CC1" ?
no (0)

Short answer needed: outcome of this test for "NNC(=O)CCCCCCCC(=O)O" ?
no (0)

Short answer needed: outcome of this test for "CCN(CC)CCN1CCN=C2c3cc(OC)ccc3Nc3c([N+](=O)[O-])ccc1c32" ?
yes (1)

Short answer needed: outcome of this test for FC(F)(F)P1C2C=CC(CC2)C1(F)F (stereo unspecified) ?
no (0)

Short answer needed: outcome of this test for O=[N+]([O-])c1ccc2nc3n(c2c1)C(c1c(F)cccc1F)SC3 (stereo unspecified) ?
no (0)

Short answer needed: outcome of this test for O=C1CCC2CCOc3ccc(O)c1c32 (stereo unspecified) ?
no (0)

Short answer needed: outcome of this test for CC(C)CC1C(=O)NCCC(NC(=O)C(Cc2ccc(OC(C)(C)C)cc2)NC(=O)OC(C)(C)C)C(=O)NC(Cc2ccccc2)C(=O)NC(Cc2ccccc2)NC1=O (stereo unspecified) ?
no (0)
